- Test system: M14
- Procedure Text: Cytotoxicity against human M14 cells after 24 to 48 hrs by MTT assay
- Format: functional, cell-based
Observation Type: pIC50
Note on units: pIC50 is unitless, being -log10 of a concentration expressed in mol/L.

Identify the reported pIC50 for the following entry. CCCC(=O)N1C(=O)[C@]2(SC[C@H]3C(=O)N(Cc4cc(OC)c(OC)c(OC)c4)C(=O)N32)c2cc(C)ccc21 5.13

Determine from records and report pIC50 for COc1cc(CN2C(=O)[C@@H]3CS[C@]4(C(=O)Nc5ccc(C)cc54)N3C2=O)cc(OC)c1OC 5.62

Please give the documented pIC50 of COc1cccc2c1C(=O)c1c(O)c3c(c(O)c1C2=O)C[C@@](O)(C(=O)CO)C[C@@H]3O[C@H]1C[C@H](N)[C@H](O)[C@H](C)O1 [DOXORUBICIN] 6.00

Return pIC50 (reported value) for this compound: CN1C(=O)[C@]2(SC[C@H]3C(=O)N(Cc4ccc(Cl)cc4)C(=O)N32)c2ccccc21 5.61

For the compound COc1cc(CN2C(=O)[C@@H]3CS[C@]4(C(=O)N(C(=O)c5ccc(C)cc5)c5ccc(C)cc54)N3C2=O)cc(OC)c1OC , give its reported pIC50. 5.23

Using known records, supply pIC50 for Cc1ccc(CN2C(=O)[C@@H]3CS[C@]4(C(=O)Nc5ccccc54)N3C2=O)cc1 4.88

Hello, please tell me recorded pIC50 for this one: O=C1[C@@H]2CS[C@]3(C(=O)Nc4ccc(Br)cc43)N2C(=O)N1Cc1ccccc1 4.92

State, in one line, measured pIC50 of CC1(C)CCC(N2C(=O)[C@@H]3CS[C@]4(C(=O)Nc5ccccc54)N3C2=O)CC1 5.15

====

- Tested on: M14
- Procedure Text: Cytotoxicity against human M14 cells after 24 to 48 hrs by MTT assay
- Type: functional, cell-based
pIC50: −log10 of the molar value.
Label Condition met when pIC50 is at or above 5; anything below gets Condition not met.

Quick check: does CCCC(=O)N1C(=O)[C@]2(SC[C@H]3C(=O)N(Cc4ccc(Cl)cc4)C(=O)N32)c2ccccc21 have pIC50 greater than or equal to 5? Condition met

Identify whether the reported pIC50 of the following compound is 5 or greater: Cc1ccc(CN2C(=O)[C@@H]3CS[C@]4(C(=O)N(C)c5ccccc54)N3C2=O)cc1 Condition not met

====

- Tested on: M14
- Procedure Text: Cytotoxicity against human M14 cells after 24 to 48 hrs by MTT assay
- Type: functional, cell-based
Observation Type: pIC50
Notebook: values listed as pIC50 are -log10 of the concentration (mol/L).

Please list pIC50 recorded for the molecule CN1C(=O)[C@]2(SC[C@H]3C(=O)N(Cc4ccccc4)C(=O)N32)c2ccccc21 5.20

Indicate its recorded pIC50; the molecule in question is Cc1ccc2c(c1)[C@@]1(SC[C@H]3C(=O)N(Cc4ccccc4)C(=O)N31)C(=O)N2 5.41

Give the value of pIC50 reported for the following: COc1cc(CN2C(=O)[C@@H]3CS[C@]4(C(=O)N(C(=O)c5ccc(Cl)cc5)c5ccc(C)cc54)N3C2=O)cc(OC)c1OC 5.09

Hello, please tell me recorded pIC50 for this one: COc1cc(CN2C(=O)[C@@H]3CS[C@]4(C(=O)Nc5ccc(Br)cc54)N3C2=O)cc(OC)c1OC 4.96

Give the reported value of pIC50 for this record: COc1cc(CN2C(=O)[C@@H]3CS[C@]4(C(=O)Nc5ccccc54)N3C2=O)cc(OC)c1OC 5.33

Output pIC50 of O=C1[C@@H]2CS[C@]3(C(=O)Nc4ccccc43)N2C(=O)N1Cc1ccc(Cl)cc1 6.28

Specify pIC50 for COc1cc(CN2C(=O)[C@@H]3CS[C@]4(C(=O)N(C(=O)c5ccccc5)c5ccc(C)cc54)N3C2=O)cc(OC)c1OC and stop. 5.11

Provide pIC50 value for the following molecule: Cc1ccc2c(c1)[C@@]1(SC[C@H]3C(=O)N(Cc4ccc(Cl)cc4)C(=O)N31)C(=O)N2 5.18

Give the measured pIC50 for Cc1ccc2c(c1)[C@@]1(SC[C@H]3C(=O)N(C4CCC(C)(C)CC4)C(=O)N31)C(=O)N2 4.72

// Input: O=C1[C@@H]2CS[C@]3(C(=O)N(C(=O)c4ccccc4)c4ccccc43)N2C(=O)N1Cc1ccc(Cl)cc1 . Output its pIC50 only. 5.49

Kindly indicate its recorded pIC50. Item: O=C1[C@@H]2CS[C@]3(C(=O)Nc4ccc(Br)cc43)N2C(=O)N1Cc1ccc(Cl)cc1 5.15

Give reported pIC50 value for Cc1ccc(C(=O)N2C(=O)[C@]3(SC[C@H]4C(=O)N(Cc5ccc(Cl)cc5)C(=O)N43)c3ccccc32)cc1 5.68

Complete the entry with pIC50 for Cc1ccc(CN2C(=O)[C@@H]3CS[C@]4(C(=O)Nc5ccc(C)cc54)N3C2=O)cc1 5.47

For the molecule O=C1[C@@H]2CS[C@]3(C(=O)N(C(=O)c4ccc(Cl)cc4)c4ccccc43)N2C(=O)N1Cc1ccc(Cl)cc1 , report pIC50. 5.47

====

- Test system: M14
- Procedure Text: Cytotoxicity against human M14 cells after 24 to 48 hrs by MTT assay
- Type: functional, cell-based
What IC50 was measured for each of the following?
Express the result in µM but write the number alone.

Answer with reported IC50 of Cc1ccc(CN2C(=O)[C@@H]3CS[C@]4(C(=O)Nc5ccc(Br)cc54)N3C2=O)cc1 10.2

Item O=C1[C@@H]2CS[C@]3(C(=O)Nc4ccccc43)N2C(=O)N1Cc1ccccc1 : provide IC50 10.6

Look up and state reported IC50 for COc1cc(CN2C(=O)[C@@H]3CS[C@]4(C(=O)N(C)c5ccccc54)N3C2=O)cc(OC)c1OC 7.66
